Measured Ki values are reported for all entries that follow.
- subjectOfTest: CbuqPBP1 (Cyrtotrachelus buqueti)
- Construct: E. coli BL21(DE3), pET-28a(+); His-tag cut with enterokinase; about 400 bp insert, 16 kDa
- experimentSummary: competitive displacement of 1-NPN fluorescence
- Format: binding
- experimentalSetup: read-out: Ki (μM) / PBP1
measuredQuantity: Ki (µM)

| querySmiles | measuredQuantity | endpointValue |
| --- | --- | --- |
| c1ccc2scnc2c1 | Ki | 9.82 |
| C[C@@H]1CC[C@H]2C(C)(C)[C@H]3C[C@@]12CC[C@@]3(C)O | Ki | 21.9 |

---

- subjectOfTest: CbuqPBP1 (Cyrtotrachelus buqueti, UniProt A0A1B3IIF7)
- Construct: E. coli BL21(DE3), pET-28a(+); His-tag cut with enterokinase; about 400 bp insert, 16 kDa
- Sequence (A0A1B3IIF7 17-143): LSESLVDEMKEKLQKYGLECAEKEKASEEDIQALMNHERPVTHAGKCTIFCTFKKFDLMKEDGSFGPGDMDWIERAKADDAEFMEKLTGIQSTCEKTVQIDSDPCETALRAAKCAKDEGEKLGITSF
- experimentSummary: competitive displacement of 1-NPN fluorescence
- Assay type: binding
- experimentalSetup: read-out: IC50 (μM) / PBP1
Item-by-item account of IC50
measuredQuantity: IC50 (µM)

| molecule | endpointValue |
| --- | --- |
| c1ccc2scnc2c1 [benzothiazole] | 13.4 |
| C[C@@H]1CC[C@H]2C(C)(C)[C@H]3C[C@@]12CC[C@@]3(C)O [cedrol] | 30 |

Taken from paper PMC6796961.
